Could you please report measured residual activity for the items listed next?
- tgt: Protein kinase C eta type (Homo sapiens)
- settings: at 10 µM
Answers are plain numbers, in %.

Worked cases, answers included:
compound: COc1ccc2c(c1)c(C1=C(c3c[nH]c4ccccc34)C(=O)NC1=O)cn2CCCN(C)C
tgt: Protein kinase C eta type (Homo sapiens)
value-unit: %
residual activity: 2
--
compound: O=C(NC(NC(=S)Nc1ccc(F)c([N+](=O)[O-])c1)C(Cl)(Cl)Cl)C(c1ccccc1)c1ccccc1 (configuration not stated)
tgt: Protein kinase C eta type (Homo sapiens)
value-unit: %
residual activity: 90

# return residual activity for each item in the list
1. Cn1sc(=O)n(Cc2ccccc2)c1=O
2. CN([C@@H](Cc1ccc(OS(=O)(=O)c2cccc3cnccc23)cc1)C(=O)N1CCN(c2ccccc2)CC1)S(=O)(=O)c1cccc2cnccc12
3. O=C1NC(=O)c2c1c1c3ccccc3[nH]c1n1cncc21
4. CSc1nc(-c2ccc(F)cc2)c(-c2ccnc(NC(C)c3ccccc3)c2)[nH]1 (configuration not stated)
5. N#C/C(=C\c1ccc(O)c(O)c1)C(=O)NCc1ccccc1
6. CC(C)c1nn(-c2c(Cl)cccc2Cl)c2nc(Cc3ccc(OCCO)cc3)[nH]c(=O)c12

Outgoing:
1: 17; 2: 100; 3: 81; 4: 73; 5: 82; 6: 91

# return residual activity for each item in the list
1. NC(=O)Nc1sc(-c2ccc(F)cc2)cc1C(N)=O
2. NC(=O)c1ccc(-c2nc(-c3ccc4c(c3)OCCO4)c(-c3ccccn3)[nH]2)cc1
3. O=C(c1ccccc1)c1ccc(N2CCOCC2)cc1O
4. O=c1cc(N2CCNCC2)oc2c(-c3ccccc3)cccc12

Outgoing:
1: 60; 2: 88; 3: 83; 4: 82

# return residual activity for each item in the list
1. O=C(O)/C=C/c1cc(Br)c(Br)c(Br)c1Br
2. O=c1cc(N2CCOCC2)oc2c(-c3ccccc3)cccc12

Outgoing:
1: 79; 2: 66

# return residual activity for each item in the list
1. CC(C)[C@H](CO)Nc1nc(Nc2cc(N)cc(Cl)c2)c2ncn(C(C)C)c2n1
2. Nc1ncnc2c1cnn2-c1ccccc1

Outgoing:
1. 99
2. 76

meta.source: ChEMBL document CHEMBL2218924
